molecular target: 5-hydroxytryptamine receptor 1D (Homo sapiens); experiment: Stimulation of [35S]GTP-gamma-S, binding in CHO cells expressing the human 5-hydroxytryptamine 1D receptor.; assay type: functional, cell-based
Sequence (P28221 whole entry): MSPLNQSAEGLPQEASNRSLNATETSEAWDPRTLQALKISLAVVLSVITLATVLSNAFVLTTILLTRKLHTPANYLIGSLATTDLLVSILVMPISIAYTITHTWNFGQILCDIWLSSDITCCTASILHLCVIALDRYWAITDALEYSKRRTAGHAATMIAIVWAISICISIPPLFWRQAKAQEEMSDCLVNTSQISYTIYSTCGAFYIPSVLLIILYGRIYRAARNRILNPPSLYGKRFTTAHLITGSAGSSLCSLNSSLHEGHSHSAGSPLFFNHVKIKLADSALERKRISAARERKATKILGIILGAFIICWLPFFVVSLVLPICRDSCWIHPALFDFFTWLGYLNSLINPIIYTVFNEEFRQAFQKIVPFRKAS
pEC50: −log10 of the molar value.
readout: pEC50

[P] c1cnc(N2CCN(CCCc3c[nH]c4ccc(-n5cnnc5)cc34)CC2)nc1
[Q] CC(CN1CCN(CCCc2c[nH]c3ccc(-n4cnnc4)cc23)CC1)c1ccccc1 (stereo not given)
Pick the one with the larger pEC50: P vs Q State the label of the item chosen.
Q
(Q: 9.52, P: 9.22)

[A] O=C1CN(CCCc2c[nH]c3ccc(-n4cnnc4)cc23)CCN1Cc1ccccc1
[B] Fc1ccc(CCN2CCN(CCCc3c[nH]c4ccc(-n5cnnc5)cc34)CC2)cc1F
Pick the one with the larger pEC50: A vs B State the label of the item chosen.
B
(B: 9.15, A: 8.12)
